Biological target: human GLP-1 receptor (hGLP1R) (human, UniProt P43220 24-463)
Test: cell-based or functional assay
Square brackets hold non-standard residues; d marks the D form. Ends that are not written are not given here. Aib = CC(C)(N)C(=O)O
propertyName: pEC50 hGLPR1

Lookup result for HGEGTFTSDVSYLKEEA[Aib]LQRFLEHLV-NH2 (not fully specified (residue 14); also: K14 lipidated with C20DA[γE][OEG][OEG]- or C18DA[γE][OEG][OEG]-) [SEQ ID NO: 142] ; measured pEC50 hGLPR1: 10.9 -log M

Lookup result for H[Aib]EGTFTSDVSALKEEA[Aib]LQRFLEHLV-NH2 (not fully specified (residue 14)) [SEQ ID NO: 148] ; measured pEC50 hGLPR1: 10.8 -log M
